System: Saccharomyces cerevisiae
Assay: protein stability index of tFT-peptide fusion (C-terminal peptide) (PSI (0-1 scale)); higher = more stable (slower turnover);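 further: PSI is a weighted mean of sequencing reads over stability bins, variants kept only with over 10 reads, mCherry proximal and sfGFP distal, peptide attached via GGGS linker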
Condition Notes: genetic background: wild type; temperature: 30 C
Catalogue of protein stability index readings, one per entry.
Measured Quantity: protein stability index

Polymer Sequence | Tested Target | Measured Quantity | Data Value
RRIKIRKQEYIS | Saccharomyces cerevisiae | protein stability index | 0.217
GFTIFFFFFFFV | Saccharomyces cerevisiae | protein stability index | 0.165
WFLMVILYTVYG | Saccharomyces cerevisiae | protein stability index | 0.187
RFKEKVSIIHKQ | Saccharomyces cerevisiae | protein stability index | 0.106
PHSMRTTTIMCS | Saccharomyces cerevisiae | protein stability index | 0.243
FILLHLLGTIRS | Saccharomyces cerevisiae | protein stability index | 0.352
TVIVCCHLEVVY | Saccharomyces cerevisiae | protein stability index | 0.0249
RVTRLDAIYFRI | Saccharomyces cerevisiae | protein stability index | 0.312
FVRVFLRLGVVS | Saccharomyces cerevisiae | protein stability index | 0.177
GVSRRWFSLRCI | Saccharomyces cerevisiae | protein stability index | 0.15
VLAARVVLLRCR | Saccharomyces cerevisiae | protein stability index | 0.195
IVFGWGVEWGRL | Saccharomyces cerevisiae | protein stability index | 0.701
RVSIIYLGVLIS | Saccharomyces cerevisiae | protein stability index | 0.073
LRFFYFLHFCIL | Saccharomyces cerevisiae | protein stability index | 0.223
WLTCSLVFNVFW | Saccharomyces cerevisiae | protein stability index | 0.389
GFFLCTCIRFWV | Saccharomyces cerevisiae | protein stability index | 0.254
VNILFCLFFLLV | Saccharomyces cerevisiae | protein stability index | 0.36
LLTLILRIFVLN | Saccharomyces cerevisiae | protein stability index | 0.147
RLPYSLTFFLLC | Saccharomyces cerevisiae | protein stability index | 0.0628
CAGLLSVSFWLF | Saccharomyces cerevisiae | protein stability index | 0.381

###

System: Saccharomyces cerevisiae
Assay: protein stability index of tFT-peptide fusion (C-terminal peptide) (PSI (0-1 scale)); higher = more stable (slower turnover)
Condition Notes: genetic background: cdc34-1; temperature: 37 C

Polymer Sequence | Tested Target | protein stability index
VIGLLSYFLVYL | Saccharomyces cerevisiae | 0.498
VCFCFLRFLSLL | Saccharomyces cerevisiae | 0.543
FLLASSRRICCS | Saccharomyces cerevisiae | 0.458
CKGPPVKFIVLM | Saccharomyces cerevisiae | 0.614
FLLCGVFFFFFV | Saccharomyces cerevisiae | 0.323
ALCPPLPMLVVA | Saccharomyces cerevisiae | 0.0299
PLSNLCRVLTFI | Saccharomyces cerevisiae | 0.557
CLFFLVYELSIL | Saccharomyces cerevisiae | 0.256
WSNICFWCGVWS | Saccharomyces cerevisiae | 0.685
WFCCAQRGVIVG | Saccharomyces cerevisiae | 0.446
RVTYWKAVLVRL | Saccharomyces cerevisiae | 0.47
FVRVFLRLGVVS | Saccharomyces cerevisiae | 0.14
GLCGVCLVRCVG | Saccharomyces cerevisiae | 0.301
PYSLYASSSSPL | Saccharomyces cerevisiae | 0.696
GRGGLRVVVWLV | Saccharomyces cerevisiae | 0.518
ACGGGSNVHRAG | Saccharomyces cerevisiae | 0.665
WQSFRDKLIKGN | Saccharomyces cerevisiae | 0.646
LSRFRYFVLTSL | Saccharomyces cerevisiae | 0.531
GQRIKWGPIYLT | Saccharomyces cerevisiae | 0.352
LLVIAIKVPANS | Saccharomyces cerevisiae | 0.489
TVIVCCHLEVVY | Saccharomyces cerevisiae | 0.0776
LRVAWVCISIVA | Saccharomyces cerevisiae | 0.0375
IFSFRWVLPFWL | Saccharomyces cerevisiae | 0.611
IYFFVLRLRLCG | Saccharomyces cerevisiae | 0.278
LFTTYVFLVFFQ | Saccharomyces cerevisiae | 0.345
SFLLVWCLLPEI | Saccharomyces cerevisiae | 0.364
FQWILYIAKRVV | Saccharomyces cerevisiae | 0.556
SRRCGLFVFILF | Saccharomyces cerevisiae | 0.387
YGHLPLLVLFCV | Saccharomyces cerevisiae | 0.459
PHGASLCVPPSP | Saccharomyces cerevisiae | 0.675
LLVFFLAIPSLV | Saccharomyces cerevisiae | 0.286
LDLSSLRCRYLL | Saccharomyces cerevisiae | 0.639
RKRTILVIIVVK | Saccharomyces cerevisiae | 0.181
FRCPHAVKLVLV | Saccharomyces cerevisiae | 0.384
ICTHPCLRLRLN | Saccharomyces cerevisiae | 0.517
GPVRTEFWLYVW | Saccharomyces cerevisiae | 0.651
SYVFEFIVSVVF | Saccharomyces cerevisiae | 0.208
FCLGFRFFVFFL | Saccharomyces cerevisiae | 0.26
VERKLMTIYIKI | Saccharomyces cerevisiae | 0.611
SCFRSLAVYFLC | Saccharomyces cerevisiae | 0.333
VSVQVRCCPWVG | Saccharomyces cerevisiae | 0.679
VGVIGWGGLGVG | Saccharomyces cerevisiae | 0.486
LLAWLHTVQRVG | Saccharomyces cerevisiae | 0.695
YMPKHKIQKLMQ | Saccharomyces cerevisiae | 0.701
VVLVLLCIGRLL | Saccharomyces cerevisiae | 0.367
GNIHHTRFLALL | Saccharomyces cerevisiae | 0.838
YLFFHMVVLVVV | Saccharomyces cerevisiae | 0.0358
VLVVWLGICFGY | Saccharomyces cerevisiae | 0.166
FYPFHVFCLLIF | Saccharomyces cerevisiae | 0.18
NLDRYYKKIKLI | Saccharomyces cerevisiae | 0.338
PVGLMKRFRLFI | Saccharomyces cerevisiae | 0.698
GGSIKRFVILVL | Saccharomyces cerevisiae | 0.416
LLFYSYFFFVLY | Saccharomyces cerevisiae | 0.172
GRVAIFTLLWRI | Saccharomyces cerevisiae | 0.199
FSLRLFLVLALS | Saccharomyces cerevisiae | 0.303
CLQYRACLILLT | Saccharomyces cerevisiae | 0.406
ASVCLNVIYQLV | Saccharomyces cerevisiae | 0.515
YFFFLFFLLPPF | Saccharomyces cerevisiae | 0.453
CFCVSVHVWLLM | Saccharomyces cerevisiae | 0.112
PLRVFFLVAFCL | Saccharomyces cerevisiae | 0.451
LLLLFPSPLFIR | Saccharomyces cerevisiae | 0.126
TTSHFCVVLVSV | Saccharomyces cerevisiae | 0.283
GKWFSWNAIWIR | Saccharomyces cerevisiae | 0.0949
GWVQFVKAAVLF | Saccharomyces cerevisiae | 0.655
HNQDKNVKYKIG | Saccharomyces cerevisiae | 0.672
LPVPVLGFPPLA | Saccharomyces cerevisiae | 0.703
FGLMCFIFYVLV | Saccharomyces cerevisiae | 0.2
CLSGPFRSLAVF | Saccharomyces cerevisiae | 0.545
SFFFTLLICFLF | Saccharomyces cerevisiae | 0.161
ALSRFFSVFLLV | Saccharomyces cerevisiae | 0.592
FPRPLPVPLAVS | Saccharomyces cerevisiae | 0.153
MFWKFVFRGFWF | Saccharomyces cerevisiae | 0.694
PGFCFFLYYCMM | Saccharomyces cerevisiae | 0.481
FTGLCQGLWLGW | Saccharomyces cerevisiae | 0.691
FFRVCNALLLVC | Saccharomyces cerevisiae | 0.0637
ARWGVGLWRGAS | Saccharomyces cerevisiae | 0.664
FLPFRVFNFSLV | Saccharomyces cerevisiae | 0.659
CMYTILRHKINN | Saccharomyces cerevisiae | 0.628
NYCLYFKLSRLS | Saccharomyces cerevisiae | 0.62
WLFASCVFFWSS | Saccharomyces cerevisiae | 0.447
IVFGWGVEWGRL | Saccharomyces cerevisiae | 0.757
KKNITRLKNKMT | Saccharomyces cerevisiae | 0.535

###

Tested on: Saccharomyces cerevisiae
Assay: protein stability index of tFT-peptide fusion (C-terminal peptide) (PSI (0-1 scale)); higher = more stable (slower turnover)
Condition Notes: genetic background: wild type; temperature: 30 C
Measured Quantity: protein stability index

Polymer Sequence | Data Value
NSLGRRRSYPTL | 0.839
GSCVGASRGWLV | 0.727
PPPTPPPGTYSL | 0.579
GLGPMPRGTSTI | 0.692
PAGLITRSWNLV | 0.565
GVGLGGVGFRGG | 0.694
RCGGGKWWRGAE | 0.657
PPVFYAPLVTER | 0.7
NVNAVAVILGAC | 0.562
RVLWVELGSWGG | 0.708
FSLPSRAPLPRF | 0.735
GGGVLTWLGENC | 0.702
HIPPFSPCPPTG | 0.707
ATHSMSYRGSTK | 0.662
PACSPLLAARVT | 0.711
VSVFNFPSLFVG | 0.66
DTPERKGNLEEH | 0.709
QPPSCTSRPPYR | 0.718
LIMLNNIENSSI | 0.678
GVRGALGCAGRV | 0.679
HMGTNSSTGDRN | 0.636
VAGDGYDVMDNG | 0.553
VDHWVCWCGGWV | 0.731
HSPVPPLPALPL | 0.73
IGLKKVVKIRKD | 0.614
VGYGRGGAVGVE | 0.695
EPYHYAWTQRSW | 0.698
FCGFLVLGSFPV | 0.664
LIIGYFSSRVCL | 0.61
PPPHPSPSRRSS | 0.681
LRLGRDLMGEGV | 0.661
LLLRQVFSLGVF | 0.162
FCTVYFVCVWEM | 0.334
VEWGGDGVFWTG | 0.8
PPIRLPSPLLPH | 0.712
YRSPRSSSGSSF | 0.67
GGLGGAGAGVVC | 0.694
VWRLCFPFALVR | 0.194
FVIWGCGVRSWC | 0.618
GGFFPRISSLTV | 0.707
WGGLGWVWVKLG | 0.685
PPHAPKPPPTAA | 0.588
FAPCSPKAVFCS | 0.589
PPAPLPQSAPTR | 0.645
KKRILNRKKEER | 0.705
SLVTGRGFKVYR | 0.681
PNLSPPTPLSAD | 0.649
PPPRHSPRPPCI | 0.746
QCCPPEQLSNCS | 0.681
LPASPSIAPPPT | 0.636
PPPYDPPRPLPR | 0.721
SGVVGLSTSGVV | 0.695
RRLAGRPVTRGA | 0.667
SVVLCRFVLRIF | 0.128
HSRALLSVLPPH | 0.702
SVPRPPPPRAPL | 0.646
PLRPPCPLPPRT | 0.603
DLCITNTMLFYL | 0.702
FFVGAGGTEGLG | 0.705
SSRAPSLPPPPP | 0.674
LRQALGRSEEPQ | 0.673
GRGGLRVVVWLV | 0.189
KCDLTREDVVHR | 0.657
CWSSVGLSVCGC | 0.601
QITIYPIPLARF | 0.79
STRFVRNEFGVS | 0.665
SFPRSHPPPFPP | 0.674
TTRACVTRGCSV | 0.623
SMCASRMPVCFS | 0.767
YFFFLFFLLPPF | 0.374
LPFPPPIIATPP | 0.665
PDSLCLSPPSLP | 0.686
FPLFCRIHLLCS | 0.107
LPPPYSHTPPPR | 0.581
WGGASIGMGFGA | 0.743
DGGVGGRAPRVR | 0.744
EWVSGWIVRWWR | 0.679
FTARAGRLQSVF | 0.627
LLSLPTTNLMAF | 0.484
VCAEGAAYSDKA | 0.646
SAPLVSLHLSPL | 0.68
KQKKKIKIQNKT | 0.689
